- MEASURED_TARGET: Muscarinic acetylcholine receptor
- ASSAY_REMARKS: Dissociation constant estimated by Schild analysis for antimuscarinic activity in guinea pig bladder
- Format: protein assay, Cavia porcellus
PARAMETER: pA2

[ask] Reported pA2 for Muscarinic acetylcholine receptor, given C[N+](C)(C)C[C@@H]1C[S+]([O-])[C@@](c2ccccc2)(C2CCCCC2)O1.[I-] (mixture of isomers; form 2) ?
[reply] 7.53

[ask] Query the reported pA2 for Muscarinic acetylcholine receptor; item: C[N+](C)(C)C[C@@H]1C[S+]([O-])[C@@](c2ccccc2)(C2CCCCC2)O1.[I-] (single isomer, unassigned; (-)-8)
[reply] 6.07

[ask] Observed pA2 on Muscarinic acetylcholine receptor for C[N+](C)(C)C[C@@H]1C[S+]([O-])[C@@](c2ccccc2)(C2CCCCC2)O1.[I-] (single isomer, unassigned; (+)-8) , please.
[reply] 5.56

[ask] Hello, I am looking for reported pA2 with Muscarinic acetylcholine receptor for C[N+](C)(C)C[C@@H]1C[S@@+]([O-])[C@](c2ccccc2)(C2CCCCC2)O1.[I-] (racemic) . Could you help?
[reply] 5.89

[ask] // fetch Muscarinic acetylcholine receptor pA2 for C[N+](C)(C)C[C@@H]1C[S@@+]([O-])[C@](c2ccccc2)(C2CCCCC2)O1.[I-] (stereo in doubt; (-)-3)
[reply] 5.88

[ask] Provide value of pA2 for this record tested with Muscarinic acetylcholine receptor: C[N+](C)(C)C[C@@H]1C[S@@+]([O-])[C@](c2ccccc2)(C2CCCCC2)O1.[I-] (stereo in doubt; (+)-3)
[reply] 5.94

* * *

- MEASURED_TARGET: Muscarinic acetylcholine receptor
- ASSAY_REMARKS: Dissociation constant estimated by Schild analysis for antimuscarinic activity for guinea pig ileum
- Assay type: tissue-based, Cavia porcellus
PARAMETER: pA2

[ask] // returns reported pA2 for input C[N+](C)(C)C[C@@H]1C[S@+]([O-])[C@](c2ccccc2)(C2CCCCC2)O1.[I-] (stereo in doubt; (+\-)-4)
[reply] 6.91

[ask] Can you look up the measured pA2 of C[N+](C)(C)C[C@@H]1C[S+]([O-])[C@@](c2ccccc2)(C2CCCCC2)O1.[I-] (single isomer, unassigned; (-)-8) for me?
[reply] 6.17

[ask] I am curious: what pA2 value has been reported for C[N+](C)(C)C[C@@H]1C[S@@+]([O-])[C@](c2ccccc2)(C2CCCCC2)O1.[I-] (stereo in doubt; (-)-3) ?
[reply] 5.75

[ask] Consider the compound shown here: C[N+](C)(C)C[C@@H]1C[S+]([O-])[C@@](c2ccccc2)(C2CCCCC2)O1.[I-] (mixture of isomers; form 1) What is its recorded pA2?
[reply] 5.93

[ask] Could you share which pA2 value was measured for C[N+](C)(C)C[C@@H]1C[S+]([O-])[C@@](c2ccccc2)(C2CCCCC2)O1.[I-] (single isomer, unassigned; (-)-7) ?
[reply] 5.52

[ask] Data request, read-out pA2, for C[N+](C)(C)C[C@@H]1C[S@+]([O-])[C@](c2ccccc2)(C2CCCCC2)O1.[I-] (stereo in doubt; (-)-4)
[reply] 5.55

* * *

- MEASURED_TARGET: Muscarinic acetylcholine receptor
- ASSAY_REMARKS: Dissociation constant estimated by Schild analysis for antimuscarinic activity for guinea pig ileum
- Type: tissue-based, Cavia porcellus
PARAMETER: pA2

[ask] Query: pA2; subject: C[N+](C)(C)C[C@@H]1C[S+]([O-])[C@@](c2ccccc2)(C2CCCCC2)O1.[I-] (mixture of isomers; form 2)
[reply] 7.73

[ask] Form field: reported pA2 of C[N+](C)(C)C[C@@H]1C[S@@+]([O-])[C@](c2ccccc2)(C2CCCCC2)O1.[I-] (racemic)
[reply] 6.05

[ask] Form field: reported pA2 of C[N+](C)(C)C[C@@H]1C[S@+]([O-])[C@](c2ccccc2)(C2CCCCC2)O1.[I-] (stereo in doubt; (+)-4)
[reply] 7.19

[ask] Return reported pA2; argument: C[N+](C)(C)C[C@@H]1C[S+]([O-])[C@@](c2ccccc2)(C2CCCCC2)O1.[I-] (single isomer, unassigned; (+)-7)
[reply] 7.84

[ask] Which measured pA2 value corresponds to C[N+](C)(C)C[C@@H]1C[S+]([O-])[C@@](c2ccccc2)(C2CCCCC2)O1.[I-] (single isomer, unassigned; (+)-8) ?
[reply] 5.96

[ask] // pA2 lookup, key: C[N+](C)(C)C[C@@H]1C[S@@+]([O-])[C@](c2ccccc2)(C2CCCCC2)O1.[I-] (stereo in doubt; (+)-3)
[reply] 6.07

* * *

- MEASURED_TARGET: Muscarinic acetylcholine receptor
- ASSAY_REMARKS: Dissociation constant estimated by Schild analysis for antimuscarinic activity in guinea pig heart
- Format: protein assay, Cavia porcellus
PARAMETER: pA2

[ask] Quick check: pA2 on Muscarinic acetylcholine receptor, item C[N+](C)(C)C[C@@H]1C[S@+]([O-])[C@](c2ccccc2)(C2CCCCC2)O1.[I-] (stereo in doubt; (-)-4) ?
[reply] 5.48

[ask] Form field: pA2 recorded for C[N+](C)(C)C[C@@H]1C[S+]([O-])[C@@](c2ccccc2)(C2CCCCC2)O1.[I-] (mixture of isomers; form 2) with Muscarinic acetylcholine receptor (enter value)
[reply] 7.45

[ask] Query pA2 on Muscarinic acetylcholine receptor for C[N+](C)(C)C[C@@H]1C[S@@+]([O-])[C@](c2ccccc2)(C2CCCCC2)O1.[I-] (racemic)
[reply] 5.96

[ask] What value of pA2 on Muscarinic acetylcholine receptor does C[N+](C)(C)C[C@@H]1C[S@@+]([O-])[C@](c2ccccc2)(C2CCCCC2)O1.[I-] (stereo in doubt; (-)-3) have?
[reply] 6.24

[P] C[N+](C)(C)C[C@@H]1C[S+]([O-])[C@@](c2ccccc2)(C2CCCCC2)O1.[I-] (single isomer, unassigned; (-)-7)
[Q] C[N+](C)(C)C[C@@H]1C[S+]([O-])[C@@](c2ccccc2)(C2CCCCC2)O1.[I-] (single isomer, unassigned; (+)-7)
[ask] # query: argmin of pA2 over P and Q Please indicate the selected item by its label.
[reply] P
(P: 5.37, Q: 7.69)

* * *

- MEASURED_TARGET: Muscarinic acetylcholine receptor
- ASSAY_REMARKS: Dissociation constant estimated by Schild analysis for antimuscarinic activity in guinea pig bladder
- Format: protein assay, Cavia porcellus
PARAMETER: pA2

[ask] What does the data say about its pA2? Entry: C[N+](C)(C)C[C@@H]1C[S+]([O-])[C@@](c2ccccc2)(C2CCCCC2)O1.[I-] (single isomer, unassigned; (-)-7)
[reply] 5.49

[ask] State the recorded pA2 for this entry: C[N+](C)(C)C[C@@H]1C[S+]([O-])[C@@](c2ccccc2)(C2CCCCC2)O1.[I-] (mixture of isomers; form 1)
[reply] 5.83

[ask] Consider the molecule C[N+](C)(C)C[C@@H]1C[S@+]([O-])[C@](c2ccccc2)(C2CCCCC2)O1.[I-] (stereo in doubt; (-)-4) and give its measured pA2.
[reply] 5.52

[ask] # get_value(readout='pA2', item= C[N+](C)(C)C[C@@H]1C[S+]([O-])[C@@](c2ccccc2)(C2CCCCC2)O1.[I-] (single isomer, unassigned; (+)-7) )
[reply] 7.73

[ask] Which value of pA2 has been reported for C[N+](C)(C)C[C@@H]1C[S@+]([O-])[C@](c2ccccc2)(C2CCCCC2)O1.[I-] (stereo in doubt; (+)-4) in the records?
[reply] 7.19

[ask] Entry C[N+](C)(C)C[C@@H]1C[S@+]([O-])[C@](c2ccccc2)(C2CCCCC2)O1.[I-] (stereo in doubt; (+\-)-4) has what pA2?
[reply] 6.96

* * *

- MEASURED_TARGET: Muscarinic acetylcholine receptor
- ASSAY_REMARKS: Dissociation constant estimated by Schild analysis for antimuscarinic activity in guinea pig heart
- Format: protein assay, Cavia porcellus
PARAMETER: pA2

[ask] Need pA2, item C[N+](C)(C)C[C@@H]1C[S+]([O-])[C@@](c2ccccc2)(C2CCCCC2)O1.[I-] (single isomer, unassigned; (+)-8)
[reply] 5.44

[ask] Entry under review: C[N+](C)(C)C[C@@H]1C[S+]([O-])[C@@](c2ccccc2)(C2CCCCC2)O1.[I-] (mixture of isomers; form 1) . Reported pA2?
[reply] 5.93

[ask] So what's the measured pA2 for this one? C[N+](C)(C)C[C@@H]1C[S@@+]([O-])[C@](c2ccccc2)(C2CCCCC2)O1.[I-] (stereo in doubt; (+)-3)
[reply] 5.54

[ask] What does the record list as pA2 for C[N+](C)(C)C[C@@H]1C[S@+]([O-])[C@](c2ccccc2)(C2CCCCC2)O1.[I-] (stereo in doubt; (+)-4) ?
[reply] 6.8

[ask] Which measured pA2 value corresponds to C[N+](C)(C)C[C@@H]1C[S@+]([O-])[C@](c2ccccc2)(C2CCCCC2)O1.[I-] (stereo in doubt; (+\-)-4) ?
[reply] 6.53

[ask] Name the recorded pA2 for C[N+](C)(C)C[C@@H]1C[S+]([O-])[C@@](c2ccccc2)(C2CCCCC2)O1.[I-] (single isomer, unassigned; (-)-8) .
[reply] 6.01
